tested.on: Muscarinic acetylcholine receptor M2 (Homo sapiens, UniProt P08172)
Sequence (P08172 whole entry): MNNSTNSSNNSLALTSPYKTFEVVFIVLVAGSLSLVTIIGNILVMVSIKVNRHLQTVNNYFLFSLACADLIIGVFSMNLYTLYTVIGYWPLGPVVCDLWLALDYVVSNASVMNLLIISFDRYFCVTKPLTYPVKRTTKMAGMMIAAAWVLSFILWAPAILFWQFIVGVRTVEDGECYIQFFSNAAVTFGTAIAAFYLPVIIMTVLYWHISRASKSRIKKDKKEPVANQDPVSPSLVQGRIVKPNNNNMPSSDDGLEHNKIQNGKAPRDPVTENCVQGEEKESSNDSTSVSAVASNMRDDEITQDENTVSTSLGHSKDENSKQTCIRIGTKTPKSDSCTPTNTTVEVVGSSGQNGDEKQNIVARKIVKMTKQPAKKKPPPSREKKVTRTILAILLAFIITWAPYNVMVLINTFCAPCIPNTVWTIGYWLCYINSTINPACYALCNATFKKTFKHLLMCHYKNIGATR
Quick list: Ki per entry.
Number only, in nM; omit the unit.

| compound | result.type | endpoint.unit | number |
| --- | --- | --- | --- |
| CN1[C@@H]2CC[C@H]1C[C@H](OC(=O)N(c1ccccc1)c1ccccc1)C2 | Ki | nM | 222 |
| CN1[C@@H]2CC[C@H]1C[C@H](Oc1nc3ccccc3n1-c1ccccc1)C2 | Ki | nM | 16 |
| CN1CCCC(Oc2nc3ccccc3n2-c2ccccc2)C1 (racemic) | Ki | nM | 385 |
| CN1[C@@H]2CC[C@H]1C[C@@H](Oc1nc3ccccc3n1-c1ccccc1)C2 | Ki | nM | 442 |

Then there is this compound:
Reported Ki, compound c1ccc(-n2c(O[C@H]3CN4CCC3CC4)nc3ccccc32)cc1 : ____
70

---

tested.on: Muscarinic acetylcholine receptor M1 (Homo sapiens)
Sequence (P11229 whole entry): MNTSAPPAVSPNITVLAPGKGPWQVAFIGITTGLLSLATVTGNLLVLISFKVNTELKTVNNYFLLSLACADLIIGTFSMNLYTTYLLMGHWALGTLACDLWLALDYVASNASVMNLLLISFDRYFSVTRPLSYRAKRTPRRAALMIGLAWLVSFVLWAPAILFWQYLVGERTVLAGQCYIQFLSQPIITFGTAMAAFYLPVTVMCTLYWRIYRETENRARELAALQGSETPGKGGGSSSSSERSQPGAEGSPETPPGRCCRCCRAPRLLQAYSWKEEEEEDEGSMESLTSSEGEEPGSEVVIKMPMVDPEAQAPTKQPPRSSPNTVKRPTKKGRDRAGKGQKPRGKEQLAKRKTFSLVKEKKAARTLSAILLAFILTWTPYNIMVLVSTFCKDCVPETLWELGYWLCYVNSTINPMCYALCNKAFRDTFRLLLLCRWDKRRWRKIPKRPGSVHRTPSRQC
Quick list: pKi per entry.
pKi here: minus log base 10 of the concentration, concentration in moles per litre.

Please review the following examples before continuing.
| molecular.string | result.type | number |
| --- | --- | --- |
| CN1[C@@H]2CC[C@H]1C[C@H](Oc1nc3ccccc3n1-c1ccccc1)C2 | pKi | 8.05 |
| c1ccc(-n2c(O[C@H]3CN4CCC3CC4)nc3ccccc32)cc1 | pKi | 7.80 |

Reported pKi, molecule CN1[C@@H]2CC[C@H]1C[C@H](OC(=O)N(c1ccccc1)c1ccccc1)C2 : ____
7.36

---

test.name: Lipophilicity, log P of compound at pH 7.4 by HPLC analysis
Type: physicochemical
settings: buffer
result.type: logP
Answer field: number only, no words.

| compound | logP |
| --- | --- |
| CN1CCC(OC(=O)N(c2ccccc2)c2ccccc2)CC1 | 2.11 |
| CN1[C@@H]2CC[C@H]1C[C@H](OC(=O)N(c1ccccc1)c1ccccc1)C2 | 1.58 |
| c1ccc(-n2c(O[C@H]3CN4CCC3CC4)nc3ccccc32)cc1 | 1.2 |
| CN1CCC(OC(=O)N(c2ccccc2)c2ccccc2)C1 (stereo not given) | 1.91 |

Then there is this compound:
Reported logP, compound CN1[C@@H]2CC[C@H]1C[C@@H](OC(=O)N(c1ccccc1)c1ccccc1)C2 : ____
2.69

---

Quick list: pKi per entry.
tested.on: Muscarinic acetylcholine receptor M1 (Homo sapiens, UniProt P11229)
test.name: Displacement of [3H]NMS from human muscarinic M1 receptor expressed in CHO-K1 cell membrane assessed as inhibition constant incubated for 90 mins by competitive radioligand binding assay
Type: cell membranes
pKi here: minus log base 10 of the concentration, concentration in moles per litre.

| compound | pKi |
| --- | --- |
| CN1[C@@H]2C[C@@H](Oc3nc4ccccc4n3-c3ccccc3)C[C@H]1[C@@H]1O[C@@H]12 | 6.55 |
| CN1CCC(Oc2nc3ccccc3n2-c2ccccc2)C1 (racemic) | 7.29 |

Then there is this compound:
Reported pKi, compound CN1[C@@H]2CC[C@H]1C[C@@H](Oc1nc3ccccc3n1-c1ccccc1)C2 : ____
7.00

---

Quick list: Ki per entry.
tested.on: UniProt:P08173
Sequence (P08173 whole entry): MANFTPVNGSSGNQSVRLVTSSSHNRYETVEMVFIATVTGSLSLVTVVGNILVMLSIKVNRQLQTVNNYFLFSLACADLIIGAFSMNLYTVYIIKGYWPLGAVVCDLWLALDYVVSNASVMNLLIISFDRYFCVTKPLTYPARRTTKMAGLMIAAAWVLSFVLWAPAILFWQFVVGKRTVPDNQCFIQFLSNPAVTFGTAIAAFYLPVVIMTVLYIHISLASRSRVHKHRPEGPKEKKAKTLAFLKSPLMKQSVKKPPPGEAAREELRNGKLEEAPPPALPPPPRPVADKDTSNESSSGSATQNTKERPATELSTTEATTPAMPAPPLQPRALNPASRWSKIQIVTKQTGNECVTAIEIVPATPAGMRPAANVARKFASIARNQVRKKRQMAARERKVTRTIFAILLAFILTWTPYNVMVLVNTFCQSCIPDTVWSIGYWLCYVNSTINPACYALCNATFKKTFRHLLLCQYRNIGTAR
Number only, in nM; omit the unit.

Please review the following examples before continuing.
| molecular.string | endpoint.unit | number |
| --- | --- | --- |
| CN1[C@@H]2CC[C@H]1C[C@H](OC(=O)N(c1ccccc1)c1ccccc1)C2 | nM | 50 |
| CN1[C@@H]2CC[C@H]1C[C@@H](Oc1nc3ccccc3n1-c1ccccc1)C2 | nM | 201 |

Reported Ki, molecule CN1CCC(Oc2nc3ccccc3n2-c2ccccc2)CC1 : ____
32

---

tested.on: Muscarinic acetylcholine receptor M3 (Homo sapiens)
Sequence (P20309 whole entry): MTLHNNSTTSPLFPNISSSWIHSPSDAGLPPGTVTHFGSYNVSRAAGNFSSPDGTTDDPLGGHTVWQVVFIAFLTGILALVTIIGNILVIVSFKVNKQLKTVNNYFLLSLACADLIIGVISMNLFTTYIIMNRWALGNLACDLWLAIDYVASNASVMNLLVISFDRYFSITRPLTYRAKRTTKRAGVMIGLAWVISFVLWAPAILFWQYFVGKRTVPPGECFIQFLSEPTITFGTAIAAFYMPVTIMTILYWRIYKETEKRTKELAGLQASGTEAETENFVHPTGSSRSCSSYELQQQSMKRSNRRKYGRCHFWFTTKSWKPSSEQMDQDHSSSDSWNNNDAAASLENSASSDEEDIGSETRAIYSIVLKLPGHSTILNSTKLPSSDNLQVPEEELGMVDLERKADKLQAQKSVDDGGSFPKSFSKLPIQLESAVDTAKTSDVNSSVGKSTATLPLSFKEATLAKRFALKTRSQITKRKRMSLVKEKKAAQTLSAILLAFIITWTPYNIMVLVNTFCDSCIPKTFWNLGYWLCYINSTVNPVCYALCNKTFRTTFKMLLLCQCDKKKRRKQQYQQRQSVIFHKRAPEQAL
Response field label: string, one of Fulfilled (Ki strictly below 0.05 µM) or Not fulfilled.

| molecule | assigned.label |
| --- | --- |
| CN1[C@@H]2CC[C@H]1C[C@H](Oc1nc3ccccc3n1-c1ccccc1)C2 | Fulfilled |
| c1ccc(-n2c(O[C@H]3CN4CCC3CC4)nc3ccccc32)cc1 | Fulfilled |

Decide: Ki of CN1[C@@H]2CC[C@H]1C[C@H](OC(=O)N(c1ccccc1)c1ccccc1)C2 strictly below 0.05 µM?
Not fulfilled

Same for CN1[C@@H]2C[C@@H]3C[C@H]1C(O3)C2OC(=O)N(c1ccccc1)c1ccccc1 (stereo partly drawn)
Not fulfilled

---

tested.on: Muscarinic acetylcholine receptor M4 (Homo sapiens)
Sequence (P08173 whole entry): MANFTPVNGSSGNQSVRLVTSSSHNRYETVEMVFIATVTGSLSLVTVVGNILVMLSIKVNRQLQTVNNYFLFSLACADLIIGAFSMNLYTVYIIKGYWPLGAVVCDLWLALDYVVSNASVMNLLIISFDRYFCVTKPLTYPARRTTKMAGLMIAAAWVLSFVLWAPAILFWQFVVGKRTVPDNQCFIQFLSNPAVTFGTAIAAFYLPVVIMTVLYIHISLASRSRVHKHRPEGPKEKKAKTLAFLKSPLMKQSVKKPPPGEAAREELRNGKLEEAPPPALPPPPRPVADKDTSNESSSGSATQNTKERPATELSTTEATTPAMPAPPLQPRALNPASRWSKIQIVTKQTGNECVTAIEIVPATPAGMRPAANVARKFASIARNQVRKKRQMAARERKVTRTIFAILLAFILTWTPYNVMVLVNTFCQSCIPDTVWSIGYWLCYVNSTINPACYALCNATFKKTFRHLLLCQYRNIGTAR
Quick list: Ki per entry.
Number only, in µM; omit the unit.

Please review the following examples before continuing.
| compound | result.type | endpoint.unit | number |
| --- | --- | --- | --- |
| CN1CCC(OC(=O)N(c2ccccc2)c2ccccc2)CC1 | Ki | µM | 0.158 |
| CN1CCC(OC(=O)N(c2ccccc2)c2ccccc2)C1 (stereo not drawn) | Ki | µM | 0.156 |

Reported Ki, compound c1ccc(-n2c(O[C@H]3CN4CCC3CC4)nc3ccccc32)cc1 : ____
0.0094
